Target: Rac GTPase-activating protein 1 (Homo sapiens)
Sequence (Q9H0H5 whole entry): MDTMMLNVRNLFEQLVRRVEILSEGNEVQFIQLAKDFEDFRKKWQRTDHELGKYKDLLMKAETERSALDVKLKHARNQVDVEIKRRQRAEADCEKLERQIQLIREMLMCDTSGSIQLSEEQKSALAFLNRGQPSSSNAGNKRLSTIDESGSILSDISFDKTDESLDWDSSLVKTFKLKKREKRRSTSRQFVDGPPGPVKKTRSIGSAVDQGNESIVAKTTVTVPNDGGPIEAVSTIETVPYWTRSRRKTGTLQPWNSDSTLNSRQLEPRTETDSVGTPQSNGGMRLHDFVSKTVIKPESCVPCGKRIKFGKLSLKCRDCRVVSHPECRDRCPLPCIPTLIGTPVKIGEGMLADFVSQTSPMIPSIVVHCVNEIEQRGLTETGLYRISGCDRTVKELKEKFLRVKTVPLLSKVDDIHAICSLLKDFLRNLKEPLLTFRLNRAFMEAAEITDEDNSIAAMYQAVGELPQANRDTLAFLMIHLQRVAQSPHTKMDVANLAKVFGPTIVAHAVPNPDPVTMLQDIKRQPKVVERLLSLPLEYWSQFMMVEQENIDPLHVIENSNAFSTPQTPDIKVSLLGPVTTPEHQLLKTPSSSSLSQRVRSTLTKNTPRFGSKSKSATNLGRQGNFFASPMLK
Assay: blockers of MgcRacGAP-driven Rac1 GTP hydrolysis – biochemical, ADP Hunter fluorescence, primary and confirmatory, confirmation (AID 624330)
Type: functional
Where a name gives a salt, the structure may show the parent alone. Calls of active or inactive are those of the source.
Observed Property: IC50

Answered examples (4):
| Compound | IC50 |
| --- | --- |
| COc1cccc2c3cccc(OC)c3c3[nH]cnc3c12 | 82.8 µM (active) |
| CCCc1cc(S)n2c(nc3ccccc32)c1C#N | 52.2 µM (active) |
| C=C1c2cccc(O)c2C(=O)C2=C(O)[C@]3(O)C(=O)C(C(N)=O)=C(O)[C@@H](N(C)C)[C@@H]3[C@@H](O)[C@H]12 [METHACYCLINE HYDROCHLORIDE] | 66.8 µM (active) |
| CC(=O)N1CCN(c2ccc(Nc3ncnc4c3oc3ccccc34)cc2)CC1 | 46 µM (active) |

q: Reported IC50, compound `N#C/C=C\Oc1ccc(Cl)cc1N` : ____
a: 218 µM (active)

q: Reported IC50, compound `O=C(CNC(=O)c1cccs1)N/N=C/c1ccc(O)cc1O` : ____
a: 63.7 µM (active)

====

Molecular target: Cytochrome P450 1A2 (Homo sapiens, UniProt P05177);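 further: PubChem cytochrome P450 panel assay, CYP1A2 panel member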
Sequence (P05177 whole entry): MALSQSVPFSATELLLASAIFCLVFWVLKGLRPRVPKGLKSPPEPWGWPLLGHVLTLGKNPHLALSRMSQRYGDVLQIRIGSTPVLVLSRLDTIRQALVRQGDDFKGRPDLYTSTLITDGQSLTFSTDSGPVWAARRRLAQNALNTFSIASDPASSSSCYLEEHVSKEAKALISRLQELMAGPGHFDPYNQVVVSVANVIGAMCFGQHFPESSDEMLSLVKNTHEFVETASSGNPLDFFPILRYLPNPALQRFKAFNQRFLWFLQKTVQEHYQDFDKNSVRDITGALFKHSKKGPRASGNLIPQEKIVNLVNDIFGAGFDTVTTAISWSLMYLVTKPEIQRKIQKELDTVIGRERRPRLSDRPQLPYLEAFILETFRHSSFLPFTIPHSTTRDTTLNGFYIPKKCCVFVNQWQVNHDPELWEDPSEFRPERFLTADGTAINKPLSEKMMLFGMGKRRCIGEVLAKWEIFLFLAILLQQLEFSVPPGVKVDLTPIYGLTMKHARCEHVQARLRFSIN
Observed Property: AC50

q: Fill in the recorded AC50 for this compound, with Cytochrome P450 1A2 (Homo sapiens, UniProt P05177) as test system: `O=C(Nc1ccccc1C(=O)O)c1ccc2ccccc2n1`
a: 5.01 µM (inconclusive)

q: Fill in the recorded AC50 for this compound, with Cytochrome P450 1A2 (Homo sapiens, UniProt P05177) as test system: `FC(F)(F)c1nc2nc(Cl)c(Cl)nc2n1CCCN1CCOCC1`
a: 3.16 µM (inconclusive)

q: Fill in the recorded AC50 for this compound, with Cytochrome P450 1A2 (Homo sapiens, UniProt P05177) as test system: `COC(=O)c1nnn(Cc2ccccc2)c1N`
a: 0.126 µM (inconclusive)

====

Target: High affinity choline transporter 1 (Homo sapiens, UniProt Q9GZV3)
Sequence (Q9GZV3 whole entry): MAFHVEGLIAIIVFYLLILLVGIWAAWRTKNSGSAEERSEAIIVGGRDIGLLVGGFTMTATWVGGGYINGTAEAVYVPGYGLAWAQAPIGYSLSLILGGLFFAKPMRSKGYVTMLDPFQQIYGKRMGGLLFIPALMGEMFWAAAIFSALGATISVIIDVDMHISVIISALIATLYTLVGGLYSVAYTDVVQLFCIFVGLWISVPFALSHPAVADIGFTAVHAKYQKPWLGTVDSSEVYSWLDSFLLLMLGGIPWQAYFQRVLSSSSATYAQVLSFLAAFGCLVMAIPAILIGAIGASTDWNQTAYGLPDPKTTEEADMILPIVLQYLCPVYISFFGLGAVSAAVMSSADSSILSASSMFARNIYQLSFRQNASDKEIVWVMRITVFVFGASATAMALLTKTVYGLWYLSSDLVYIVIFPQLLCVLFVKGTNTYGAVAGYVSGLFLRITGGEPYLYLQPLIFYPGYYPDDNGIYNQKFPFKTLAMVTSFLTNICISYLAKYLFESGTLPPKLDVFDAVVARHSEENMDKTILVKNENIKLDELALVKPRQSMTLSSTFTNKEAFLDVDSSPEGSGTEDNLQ
Assay: human choline transporter blockers, potency – cell-based, 5-point CRC, membrane potential dye, dose response (AID 504840)
Type: functional
Activity calls are given as the source filed them.
Observed Property: IC50

| Molecule | Result |
| --- | --- |
| Cc1ccc(NC(=O)CN2C(=O)NC3(CCc4ccccc43)C2=O)cc1Cl (centres undefined) | 9.3 µM (active) |

q: Reported IC50, molecule `COc1cc(NS(=O)(=O)c2ccc(NC(=O)c3ccc(Cl)cc3Cl)cc2)ncn1` : ____
a: 4.47 µM (active)

q: Reported IC50, molecule `CCCc1cc(O)c2c(C)cc(=O)oc2c1` : ____
a: 14.5 µM (active)

q: Reported IC50, molecule `CCn1c(SCc2nc(-c3ccccc3)no2)nnc1-c1ccco1` : ____
a: 13.6 µM (active)

====

Assay: blockers of HIV-1 ZM109 envelope-driven cell-cell fusion – HeLa effector, CEM target cells, luciferase, cherry-pick, dose response (AID 652058);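 further: luciferase signal from HIV-1 Env mediated cell-cell fusion of effector and target cells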
Format: functional, cell-based
Calls of active or inactive are those of the source.
Observed Property: AC50

| Molecule Smiles | AC50 |
| --- | --- |
| CC(C)[C@H](CN(N=O)[C@@H](Cc1ccccc1)CN(C)N=O)N(CCc1ccccc1)N=O | 12.3 µM (active) |
| COC(=O)N1[C@H](C)C=C[C@]1(Cc1ccccc1)C(=O)NCCCNc1ncc(C(F)(F)F)cc1Cl | 6.11 µM (active) |
| CC(C)C[C@@H](CN(C)N=O)N(C[C@H](Cc1ccccc1)N(CCc1ccccc1)N=O)N=O | 5.62 µM (active) |

Query compound follows.
q: Reported AC50, compound `C[C@H](CO)N1C[C@H](C)[C@H](CN(C)C(=O)Cc2ccccc2)OCc2ccccc2-c2c(n(C)c3ccccc23)C1=O` : ____
a: < 0.26 µM (active)

====

Biological target: Calpain-2 catalytic subunit (Sus scrofa, UniProt P43367)
Sequence (P43367 whole entry): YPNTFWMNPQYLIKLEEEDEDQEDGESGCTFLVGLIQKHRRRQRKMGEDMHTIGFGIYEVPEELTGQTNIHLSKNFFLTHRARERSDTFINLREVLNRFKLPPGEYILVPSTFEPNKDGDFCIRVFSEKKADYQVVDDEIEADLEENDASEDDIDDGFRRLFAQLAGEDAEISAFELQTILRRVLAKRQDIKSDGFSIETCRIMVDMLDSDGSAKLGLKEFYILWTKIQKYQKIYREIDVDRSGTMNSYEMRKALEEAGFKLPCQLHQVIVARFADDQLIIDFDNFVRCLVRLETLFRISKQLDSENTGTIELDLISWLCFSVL
Experiment: m-calpain protease blockers, concentration series – biochemical, fluorogenic peptide substrate, dose response (AID 1420)
Type: functional
Observed Property: IC50

q: Reported IC50, compound CCc1cc2c(=O)c(-c3nc(C)cs3)coc2cc1OC(C)C(=O)NCCO (stereo unspecified) : ____
a: 3.22 µM (not active)

q: Reported IC50, compound CCOC(=O)C1(CC2CCCCO2)CCN(C(=O)Nc2ccc(C)c(C)c2)CC1 (stereo unspecified) : ____
a: > 50 µM (not active)

q: Reported IC50, compound Cl.N=c1n(Cc2ccccc2)c2ccccc2n1CC(O)COc1ccc(Cl)cc1Cl (stereo unspecified) : ____
a: 33.4 µM (not active)

q: Reported IC50, compound `Nc1cc(S(=O)(=O)N2CCCCC2)ccc1Oc1ccc(Cl)cc1` : ____
a: 5.69 µM (not active)

q: Reported IC50, compound CC1CCc2c(sc3c2C2=NS(=O)(=O)CCN2C=N3)C1 (stereo unspecified) : ____
a: 9.53 µM (not active)

q: Reported IC50, compound FC(F)(F)C1CC(c2cccs2)Nc2ncnn21 (stereo unspecified) : ____
a: 0.904 µM (not active)

====

Target: Mitogen-activated protein kinase 10 (Homo sapiens, UniProt P53779)
Sequence (P53779 whole entry): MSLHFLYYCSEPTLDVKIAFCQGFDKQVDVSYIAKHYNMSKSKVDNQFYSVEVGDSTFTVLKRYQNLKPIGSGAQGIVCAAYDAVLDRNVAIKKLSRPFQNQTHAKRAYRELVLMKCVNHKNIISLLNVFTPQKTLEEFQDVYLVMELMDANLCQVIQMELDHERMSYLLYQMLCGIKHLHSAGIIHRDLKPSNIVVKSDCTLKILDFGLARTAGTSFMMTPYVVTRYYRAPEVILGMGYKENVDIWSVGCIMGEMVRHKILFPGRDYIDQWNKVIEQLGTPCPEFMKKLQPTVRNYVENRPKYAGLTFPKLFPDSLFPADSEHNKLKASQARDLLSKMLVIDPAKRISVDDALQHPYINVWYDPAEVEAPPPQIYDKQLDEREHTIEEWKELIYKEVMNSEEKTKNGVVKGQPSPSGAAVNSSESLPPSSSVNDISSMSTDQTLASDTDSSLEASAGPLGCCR
Experiment: Dose response biochemical screening assay for inhibitors of c-Jun N-Terminal Kinase 3 (JNK3). [Related pubchem assays: 746 ]
As shown below, each of these molecules has a reported IC50 value.

| Molecule | Observed Property | Result |
| --- | --- | --- |
| CCOc1ccc(C2CC(=O)NC3=C2C(=O)CCC3)cc1 (centres undefined) | IC50 | > 93.1 µM (not active) |
| Cc1ccnc(Nc2nc(-c3c(C)nc4sccn34)cs2)c1 | IC50 | > 93.1 µM (not active) |
| CCCN1Cc2cccc(C(=O)NCc3ccc4c(c3)OCO4)c2C1=O | IC50 | 31.8 µM (not active) |

q: Reported IC50, molecule `C/C(=N\CCCn1ccnc1)C1=C(O)c2ccccc2C1=O` : ____
a: 35.7 µM (not active)

====

Molecular target: RNA-binding protein pos-1 (Caenorhabditis elegans, UniProt G5EF15)
Sequence (G5EF15 whole entry, the tested form may be a part): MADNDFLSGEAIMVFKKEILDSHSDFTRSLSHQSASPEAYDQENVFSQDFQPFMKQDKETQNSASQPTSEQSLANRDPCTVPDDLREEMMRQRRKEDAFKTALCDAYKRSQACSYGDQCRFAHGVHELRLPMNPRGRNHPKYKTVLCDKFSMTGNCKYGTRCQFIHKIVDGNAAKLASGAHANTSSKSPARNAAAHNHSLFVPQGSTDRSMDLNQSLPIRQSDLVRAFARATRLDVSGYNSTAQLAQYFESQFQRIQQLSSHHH
Test: disruptors of C. elegans POS-1 RNA interaction – biochemical, fluorescence polarization, dose response (AID 1964);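 further: purified POS-1 fused to maltose binding protein made in E. coli; potency of compounds blocking POS-1 binding to fluorescent RNA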
Calls of active or inactive are those of the source.
Observed Property: EC50

Answered examples (5):
| Molecule Smiles | Result |
| --- | --- |
| CCN1C(=O)/C(=C/c2c(C)nn(C)c2C)SC1=S | 254 µM (inconclusive) |
| CCCCNC(=O)c1cc2c(=O)n3cccc(C)c3nc2n(Cc2ccncc2)c1=N | 24.3 µM (inconclusive) |
| CNC(=O)NC(=O)COC(=O)c1ccc(-n2c(C)ccc2C)cc1 | > 300 µM (not active) |
| COc1ccc(OC)c(S(=O)(=O)Nc2ccc(O)c(Sc3nc[nH]n3)c2)c1 | 11.5 µM (active) |
| CN1Cc2c(c(C#N)c(N)n(C)c2=S)CC1(C)C | 35.4 µM (active) |

q: Reported EC50, molecule `COc1ccc(/N=C/c2c(O)ccc3ccccc23)cc1` : ____
a: > 300 µM (not active)
